Test system: human platelets
ASSAY INFO: Repression of human platelet agglutination in vitro (PRP; PAF, collagen or ADP as inducer)
Assay type: cell-based
CONDITION SET: inducer ADP 5 μM, test compound 200 μM, read-out: repression ratio of platelet agglutination, ADP
Would you mind labelling by inhibition at 200 µM? At or over 20% is true, under is false.

COMPOUND	LABEL
COc1c(O)c(C)c(C/C=C(\C)CC/C=C(\C)CC/C=C(\C)CC/C=C(\C)C(=O)O)c(OC)c1OC [Compound B]	true
COC1=C(OC)C(=O)C(C/C=C(\C)CC/C=C(\C)CC/C=C(\C)CC/C=C(\C)CC/C=C(\C)CC/C=C(\C)C(=O)O)=C(C)C1=O [Compound J]	true
COc1c(O)c(C)c(C/C=C(\C)CC/C=C(\C)CC/C=C(\C)CC/C=C(\C)CC/C=C(\C)CC/C=C(\C)C(=O)O)c(OC)c1OC [Compound G]	true
COc1c(O)c(C)c(C/C=C(\C)CC/C=C(\C)CC/C=C(\C)C(=O)O)c(OC)c1OC [Compound D]	true
COC1=C(OC)C(=O)C(C/C=C(\C)CC/C=C(\C)CC/C=C(\C)C(=O)O)=C(C)C1=O [Compound C]	false
COC1=C(OC)C(=O)C(C/C=C(\C)CC/C=C(\C)CC/C=C(\C)CC/C=C(\C)CC/C=C(\C)CC/C=C(\C)CC/C=C(\C)CC/C=C(\C)CC/C=C(\C)CCC=C(C)C)=C(C)C1=O [CoQ10, Ubidecarenone, reference compound]	false
COc1c(O)c(C)c(C/C=C(\C)CC/C=C(\C)C(=O)O)c(OC)c1OC [Compound E]	true

From: patent US4992469A
